- assay-method-text: soluble fraction after stress (log2 fold change); higher = more stays soluble; pooled small domains, quantitative proteomics
- measurement-conditions: stress: 50 degC
measure: soluble fraction (log2)
Give bare numbers.

INSERT INTO results (residue_string, obs_value) VALUES
  ('HMPRENLAYTLIMDGIVQHKNLPRASVTEAWLKQELQKAGINDFRQVLIAGIDSKGQLYFQPKQK', 0.528);

For every listed record, write down its soluble fraction (log2).
1. HMHGYLSDPAARLIRARRKTLSIRITQEGNLEIRAPLGMPKGEIEAFLKEKAQWIETHRAKVLAEYA
2. HMTEKPTREAHILDQLARDGGVLVAALSRELGVSEVTIRSDLRDLEAAGLLQRTHGGAQASSFQTVL
3. HMAQPIPSGSDIREAREAAGMNLRDFARMVGGGAIGTWSHYETGKPIRVKSISPEVWQRVRDFILQHGK
4. HMKKTVTDSVELLTFLKDIFTNTSTNKLRKMLTTGRVTVNNIVIHKAKHILVQNDVVEIGDK
5. HMKKVSVKPILELRAAGISMRKIETLMHVSRHTISAIYKAADAYSISWDNVKDFDEDKIYEMLFPPTP
6. HMPVNEEFKRLIDKIKYEFSINQAQISERLGVKSTYLSDMINGRVPYNESMQKKIHEVFHIG

Reply text:
1: -2.24; 2: -0.0142; 3: -0.417; 4: -1.86; 5: -1.94; 6: -0.0665

Inquiry: Returns the measured soluble fraction (log2) for the input sequence. Input: `HMTKEEFLYELKKELSALDSAEATAYNLRYYSDYIDAEIAKGRSEQEVLDELGNPRWLVNSIKESG`
Reply text: 0.122

---

Would you kindly list soluble fraction (log2) for each of these sequences?
- assay-method-text: soluble fraction after stress (log2 fold change); higher = more stays soluble; pooled small domains, quantitative proteomics
- measurement-conditions: stress: 50 degC
Answers are plain numbers.

Check out these entries, answers already filled in.
INSERT INTO results (residue_string, measure, obs_value) VALUES
  ('HMRNMVSVLDHIEGIGPKRRQLLYEHYGELEKIKEASVEEMAGLDGMNRPAAEAVYNFFLAQRNL', 'soluble fraction (log2)', 0.0507),
  ('HMKSLLSRREQEVLELVSRGFSYSEIAELKNLSVHTIQTHIKSLYGKLEVHSKMEAVLEATRMGLLPQ', 'soluble fraction (log2)', -1.8),
  ('HMTVSLTDVPFVPEILDRLERPELDVLLAILNGATNTFDLAAKTGRSRDELDEVLDRLTTLGLIER', 'soluble fraction (log2)', -0.214),
  ('HMDKSNEVLMNHYRKQEINQAKKRLEEEKMSIIQVLQLTNKEVITTDELLEALYISKEQLLDEIINTTQ', 'soluble fraction (log2)', -0.0889),
  ('HMSQDVLLKRSGDQIEVKITEVGEDYLKYKKKGFENGPDFKINTSDVFMVTFANGEKMMFEES', 'soluble fraction (log2)', 0.0105),
  ('HMKQDFVYNGFVEAKGDDLMVQINYKGETYYVTEGESFGGFTVKSANKDKVVLSGQGGAETVLEFR', 'soluble fraction (log2)', -0.106),
  ('HMTFPYTSLKDAPKNMKEIDGVPLTLDQVNQIAKVADSIGVSKEKNGYAIAKSQFKKSHHIENNRWVKNK', 'soluble fraction (log2)', 0.0239),
  ('HMAMDVKEVLLPGVGLRYEFDNSDGDRIGVIAKRSGDFEVVRYTAADRDAAQPMFRLTDEEADALAQILGA', 'soluble fraction (log2)', 0.0786),
  ('HMANYYEILGVKHDATEAEIKAAYKQAAKSAHPDAGGSNEKMQEVNAAWEVLGNAQKRAEYDARMA', 'soluble fraction (log2)', 0.0756),
  ('HMSEVPVLVAKTDIKELELIDDRKVTLINVPQKFKMPGSFNSPEEVYNTIAAVPIKEGEQITKPRVTWP', 'soluble fraction (log2)', 0.134);

Batch request: soluble fraction (log2) for each of the following sequences.
1. HMSNKYYETILDWFKSQIMSGELKEGDTIPSERELATRFGVSRVPVREALRILEYIGIVSNTADGMTVQKV
2. HMRIDVWLAENGFAPSRQKAQDLIAAGRVFQTDPSGRRQKVSKASAAVDPALSPKIEVIPDPE
3. HMEYSKSIKRLREDKNLTVEELAKRLSLDVEEIQKAEDGEDVDQKTLEAIARYFGVQYDSLVEGTAKSK
4. HMDAATDAIKAEVRALLEMANAQGIDTESIMLEAHEQTRNATEQDYYEAAKSALEAAIAGSNRDR
5. HMNPFTHEEINLMSIYNAAGTREGLIAALTEMWGYLDAEETELRELADSALAKLRGITDAEYAALELE
6. HMTNIDIEKSIKNTITANYDDVLNYHNEDDNKTFASGDSRYSFDYDEKTKTLIVFTNSKVDAVFVDGIKKK
7. HMQRSVNYSELHEIKERVFDALYSSPMSMPDLLAWLKGDEEHTISVIRLMQDNGDIEMGEDGRLAVV

Reply text:
[-0.879, 0.161, 0.0998, 0.0377, -0.633, -0.0966, -0.275]
